Below, each entry is listed alongside its reported IC50.
# System: THP-1 cells
# procedure text: TNFα generation assay
# Format: cell-based, human
# experimental context: Homo sapiens, THP-1, THP-1 cells; Table 22; read-out: IC50 in TNFα generation assay

compound: CCn1ncc2cc(Nc3nc(NC4CCCCC4N)c(F)cc3C(N)=O)ccc21 (centres unmarked)
IC50: 65 to 130 nM
--
compound: C[C@H](CN)Nc1nc(Nc2ccc3ncccc3c2)c(C(N)=O)cc1F
IC50: < 65 nM
--
compound: C[C@H](N)[C@@H](CC1CC1)Nc1nc(Nc2cccc3c2cnn3C)c(C(N)=O)cc1F
IC50: < 65 nM
--
compound: Cc1ccc(Nc2nc(N[C@@H]3CCCC[C@@H]3N)c(F)cc2C(N)=O)cn1
IC50: 65 to 130 nM
--
compound: COc1cccc(-c2cc(Nc3nc(NC4CCCCC4N)c(F)cc3C(N)=O)ccn2)c1F (centres unmarked)
IC50: 65 to 130 nM
--
compound: Cc1ncc(Nc2nc(N[C@@H]3CCCC[C@@H]3N)c(F)cc2C(N)=O)cc1-c1ccco1
IC50: < 65 nM
--
compound: CCCC[C@@H](Nc1nc(Nc2cncc(C3CC3)c2)c(C(N)=O)cc1F)[C@H](C)N
IC50: 130 to 200 nM
--
compound: NC(=O)c1cc(F)c(N[C@@H]2CCCC[C@@H]2N)nc1Nc1ccnc(-n2cccc2)c1 (relative stereo)
IC50: 130 to 200 nM

###

# Tested on: THP-1 cells
# procedure text: TNFα generation assay
# Assay type: cell-based, human
# experimental context: Homo sapiens, THP-1, THP-1 cells; Table 22; read-out: IC50 in TNFα generation assay
pIC50: −log10 of the molar value.

compound: CC[C@@H](Nc1nc(Nc2ccc(N3CCOCC3)nc2)c(C(N)=O)cc1F)[C@H](C)N [Example 006-265]
pIC50: 6.70 to 6.89

compound: Cc1ccc(Nc2nc(N[C@@H](CN)CC(C)C)c(F)cc2C(N)=O)cn1 [Example 006-233]
pIC50: 6.70 to 6.89

compound: CCCC[C@@H](Nc1nc(Nc2ccnc(OCCOC)c2)c(C(N)=O)cc1F)[C@H](C)N [Example 006-407]
pIC50: 6.70 to 6.89

compound: CC(C)C[C@H](CN)Nc1nc(Nc2cncc(-n3nccn3)c2)c(C(N)=O)cc1F [Example 004-195]
pIC50: 6.89 to 7.19

compound: COc1cccc(-c2cncc(Nc3nc(N[C@@H](CN)CC(C)C)c(F)cc3C(N)=O)c2)c1 [Example 006-317]
pIC50: 6.70 to 6.89

compound: CN(C)C(=O)c1cc2cc(Nc3nc(N[C@@H]4CCCC[C@@H]4N)c(F)cc3C(N)=O)ccc2[nH]1 (relative stereo) [Example 029-016]
pIC50: 6.70 to 6.89

compound: CCC[C@@H](Nc1nc(Nc2cncc(C3CC3)c2)c(C(N)=O)cc1F)[C@@H](N)CC [Example 006-402]
pIC50: 6.70 to 6.89

compound: NC(=O)c1cc(F)c(N[C@@H]2CCCC[C@@H]2N)nc1Nc1ccnc(-n2ccnn2)c1 (relative stereo) [Example 006-126]
pIC50: > 7.19

compound: CCn1ncc2cc(Nc3nc(N[C@@H](CN)CC(C)C)c(F)cc3C(N)=O)ccc21 [Example 006-322]
pIC50: > 7.19

compound: CCn1nc(C)c2cc(Nc3nc(N[C@H](CC(C)C)[C@H](C)N)c(F)cc3C(N)=O)ccc21 [Example 006-521]
pIC50: 6.89 to 7.19

compound: COCCOc1cc(Nc2nc(N[C@H](c3ccc(F)cc3)[C@H](C)N)c(F)cc2C(N)=O)ccn1 [Example 006-559]
pIC50: 6.89 to 7.19

compound: C[C@H](N)[C@@H](C)Nc1nc(Nc2cccc(-n3nccn3)c2)c(C(N)=O)cc1F (racemic) [Example 006-111]
pIC50: 6.89 to 7.19

compound: C[C@H](N)[C@@H](CC1CC1)Nc1nc(Nc2cncc(-c3ccccc3)c2)c(C(N)=O)cc1F [Example 006-351]
pIC50: 6.89 to 7.19

compound: Cc1ncc(Nc2nc(NC3CCCCC3N)c(F)cc2C(N)=O)cc1-c1ccoc1 (stereo not drawn) [Example 002-117]
pIC50: 6.89 to 7.19

compound: CC[C@@H](Nc1nc(Nc2ccc3c(c2)c(C)nn3CC)c(C(N)=O)cc1F)[C@H](C)N [Example 006-525]
pIC50: 6.89 to 7.19

###

Below, each entry is listed alongside its reported IC50.
# study system: glutathione S-transferase (GST)-fused full-length human Syk protein (Homo sapiens, UniProt P43405)
# Construct: (GST)-fused full-length human Syk protein; GST (glutathione S-transferase); purchased Carna Biosciences
# procedure text: Syk enzyme assay
# Format: biochemical
# experimental context: Syk enzyme assay, Test Example 1; read-out: IC50 of Syk-inhibitory activity

molecule: NC(=O)c1cc(F)c(N[C@@H](C(N)=O)c2ccccc2)nc1Nc1ccc2ncsc2c1
IC50: 10 to 50 nM

molecule: CCn1nc(C2CC2)c2cc(Nc3nc(N[C@H](CC(C)C)[C@H](C)N)c(F)cc3C(N)=O)ccc21
IC50: < 10 nM

molecule: CCC(C)COc1ccc2cc(Nc3nc(NC4CCCCC4N)c(F)cc3C(N)=O)ccc2n1 (stereo not shown)
IC50: 50 to 100 nM

molecule: Cc1ncc(Nc2nc(N[C@@H]3CCCC[C@@H]3N)c(F)cc2C(N)=O)cc1-c1ccco1
IC50: < 10 nM

###

# study system: glutathione S-transferase (GST)-fused full-length human Syk protein (Homo sapiens, UniProt P43405)
# Construct: (GST)-fused full-length human Syk protein; GST (glutathione S-transferase); purchased Carna Biosciences
# procedure text: Syk enzyme assay
# Assay type: biochemical
# experimental context: Syk enzyme assay, Test Example 1; read-out: IC50 of Syk-inhibitory activity
pIC50: −log10 of the molar value.
Below, each entry is listed alongside its reported pIC50.

compound: NC(=O)c1cc(F)c(NC2CCCCC2N)nc1Nc1ccc2cnn(Cc3ccccc3)c2c1 (centres unmarked)
pIC50: 7.30 to 8.00
//
compound: CCOCCOCCNc1cccc2cc(Nc3nc(N[C@@H]4CCCC[C@@H]4N)c(F)cc3C(N)=O)cnc12
pIC50: 7.30 to 8.00
//
compound: CCOCCOCCOc1ncc(Nc2nc(N[C@@H]3CCCC[C@@H]3N)c(F)cc2C(N)=O)c2ccccc12 (relative stereo)
pIC50: 6.00 to 7.00
//
compound: COc1cccc(-c2cncc(Nc3nc(N[C@@H]4CCCC[C@@H]4N)c(F)cc3C(N)=O)c2)n1 (relative stereo)
pIC50: 7.30 to 8.00
//
compound: Cc1cc(Nc2nc(N[C@H](c3ccc(F)cc3)[C@H](C)N)c(F)cc2C(N)=O)cnc1C
pIC50: > 8.00
//
compound: COC(C)CCOc1ncc(Nc2nc(N[C@@H]3CCCC[C@@H]3N)c(F)cc2C(N)=O)c2ccccc12 (relative stereo)
pIC50: 6.00 to 7.00
//
compound: CCC[C@@H](Nc1nc(Nc2ccnc(-c3ccco3)c2)c(C(N)=O)cc1F)[C@H](C)N
pIC50: > 8.00
//
compound: C[C@H](N)[C@@H](CC1CC1)Nc1nc(Nc2ccc3scnc3c2)c(C(N)=O)cc1F
pIC50: 7.30 to 8.00
//
compound: CCn1nc(C)c2cc(Nc3nc(NC4CCCCC4N)c(F)cc3C(N)=O)ccc21 (centres unmarked)
pIC50: > 8.00
//
compound: CCn1nc(F)c2cc(Nc3nc(NC4CCCCC4N)c(F)cc3C(N)=O)ccc21 (centres unmarked)
pIC50: > 8.00
//
compound: NC(=O)c1cc(F)c(N[C@@H]2CCCC[C@@H]2N)nc1Nc1cnc2cc(-n3cccn3)ccc2c1 (relative stereo)
pIC50: > 8.00
//
compound: NC(=O)c1cc(F)c(N[C@@H]2CCCC[C@@H]2N)nc1Nc1cnc(N2CCOCC2)c(Cl)c1
pIC50: 7.30 to 8.00
//
compound: COc1ccc(C(=O)Nc2cncc(Nc3nc(NC4CCCCC4N)c(F)cc3C(N)=O)c2)c(OC)c1 (centres unmarked)
pIC50: 7.30 to 8.00
//
compound: CCNc1nc(Nc2ccc3ncsc3c2)c(C(N)=O)cc1F
pIC50: 6.00 to 7.00
//
compound: CNc1cccc2cc(Nc3nc(N[C@@H]4CCCC[C@@H]4N)c(F)cc3C(N)=O)cnc12 (relative stereo)
pIC50: > 8.00
//
compound: Cc1cc(Nc2nc(N[C@@H]3CCCC[C@@H]3N)c(F)cc2C(N)=O)ccn1
pIC50: 7.30 to 8.00
//
compound: CCn1ncc2c(Nc3nc(NC4CCCCC4N)c(F)cc3C(N)=O)cccc21 (centres unmarked)
pIC50: > 8.00
//
compound: NC(=O)c1cc(F)c(NCc2cccnc2)nc1Nc1ccc2ncccc2c1
pIC50: 6.00 to 7.00
//
compound: NC(=O)c1cc(F)c(N[C@@H]2CCCC[C@@H]2N)nc1Nc1cnc2c(c1)OCCO2 (relative stereo)
pIC50: 7.30 to 8.00
//
compound: Cn1ccc2c(Nc3nc(N[C@@H]4CCCC[C@@H]4N)c(F)cc3C(N)=O)ccnc21
pIC50: > 8.00
//
compound: C=C(C)C[C@@H](Nc1nc(Nc2ccc3ncccc3c2)c(C(N)=O)cc1F)[C@H](C)N
pIC50: > 8.00
//
compound: C[C@H](N)[C@@H](CC1CC1)Nc1nc(Nc2ccc3cnn(C)c3c2)c(C(N)=O)cc1F
pIC50: > 8.00
//
compound: CCCC[C@H](CN)Nc1nc(Nc2cncc(-c3ccccc3)c2)c(C(N)=O)cc1F
pIC50: 7.30 to 8.00
//
compound: NC(=O)c1cc(F)c(N[C@@H]2CCCC[C@@H]2N)nc1Nc1cnc2c(ccn2CCN2CCOCC2)c1
pIC50: 7.00 to 7.30
//
compound: NC(=O)c1cc(F)c(N[C@@H]2CCCC[C@@H]2N)nc1Nc1ccc2c(cnn2C2CC2)c1
pIC50: > 8.00
//
compound: CN(C)C(=O)c1cc(Nc2nc(NC3CCCC[C@@H]3N)c(F)cc2C(N)=O)ccn1 (some centres unmarked)
pIC50: 7.00 to 7.30
//
compound: CC(C)C[C@@H](Nc1nc(Nc2ccc3ncccc3c2)c(C(N)=O)cc1F)c1ncc[nH]1
pIC50: 6.00 to 7.00
//
compound: NC(=O)c1cc(F)c(N[C@@H]2CCCC[C@@H]2N)nc1Nc1cncc(-c2ncccn2)c1 (relative stereo)
pIC50: 7.30 to 8.00
//
compound: Cn1cc(-c2cncc(Nc3nc(N[C@@H]4CCCC[C@@H]4N)c(F)cc3C(N)=O)c2)cn1 (relative stereo)
pIC50: > 8.00
